# Assay Comment: Cytotoxicity against C57BL/6 mouse BV-2 cells assessed as survival rate at 30 uM incubated for 24 hrs by MTT assay relative to control
# Type: toxicity, cell-based
# Condition Parameters: read-out: Survival
Measured Endpoint: viability at 24 h, 30 µM (%)
Quick reminder: number only, in %, skip the unit.

Known viability at 24 h, 30 µM results, listed for orientation:
# Substance Smiles, viability at 24 h, 30 µM (%)
data = [
    ("CCN1C[C@]2(OC(=O)c3ccccc3NC(=O)S(=O)(=O)c3cccc(Cl)c3)CC[C@H](OC)[C@]34C1[C@@H](C[C@H]23)[C@@]1(O)C[C@H](OC)[C@H]2C[C@@H]4[C@]1(O)[C@H]2OC", 95.4),
    ("CCN1C[C@]2(OC(=O)c3ccccc3NC(=O)c3cccc(Br)c3)CC[C@H](OC)[C@]34C1[C@@H](C[C@H]23)[C@@]1(O)C[C@H](OC)[C@H]2C[C@@H]4[C@]1(O)[C@H]2OC", 100),
]

Item: CCN1C[C@]2(OC(=O)c3ccccc3NC(=O)S(=O)(=O)c3ccc(Br)cc3)CC[C@H](OC)[C@]34C1[C@@H](C[C@H]23)[C@@]1(O)C[C@H](OC)[C@H]2C[C@@H]4[C@]1(O)[C@H]2OC | viability at 24 h, 30 µM: 109

viability at 24 h, 30 µM in this record for CCN1C[C@]2(OC(=O)c3ccccc3NC(=O)S(=O)(=O)c3ccc4ccccc4c3)CC[C@H](OC)[C@]34C1[C@@H](C[C@H]23)[C@@]1(O)C[C@H](OC)[C@H]2C[C@@H]4[C@]1(O)[C@H]2OC : 100

Entry CCN1C[C@]2(OC(=O)c3ccccc3NC(=O)c3ccc(Br)cc3)CC[C@H](OC)[C@]34C1[C@@H](C[C@H]23)[C@@]1(O)C[C@H](OC)[C@H]2C[C@@H]4[C@]1(O)[C@H]2OC , viability at 24 h, 30 µM reported as 102
